- Species: Rattus norvegicus
- method.description: Open TG-GATES - Regimen: Daily Repeat
- Assay type: toxicity, organism-based, Sprague-Dawley
- Design: regimen Daily Repeat, gender Male, age 6 weeks
- stated.conditions: in vivo, po, 10 mg/kg, […], tissue Plasma, route gavage, dose level Low, time 28 day
Parameter: TP. Scope: all listed entries.
Value expressed in g/dL; do not type the unit.

Reference set, count: 3
compound=CN(C)CCN(Cc1cccs1)c1ccccn1 recorded_value=5.7
compound="CC1=C(/C=C/C(C)=C/C=C/C(C)=C/CO)C(C)(C)CCC1 [RETINOL]" recorded_value=6
compound="CC(C)OC(=O)C(C)(C)Oc1ccc(C(=O)c2ccc(Cl)cc2)cc1 [FENOFIBRATE]" recorded_value=6.4

Now for a further compound.
-- ask I have this compound here, CN(C)CCCN1c2ccccc2CCc2ccccc21 [IMIPRAMINE] , and I need its recorded TP.
-- reply 6.3
